- System: Coprococcus comes
- TEST NAME: growth AUC relative to DMSO control (median of replicates) (fraction); higher = more growth (less inhibition), active = hit call of the paper;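 active = AUC reduced over 20% with Padj below 0.05 in at least 2 of 3 replicates; inactive = otherwise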
- CONDITION LABEL: 20 µM; 24 h
Would you mind answering with one of these outcomes? True for active, False for inactive

Check out these entries, answers already filled in.
Query: Tell me the assay call for CC1(C)[C@H](C(=O)O[C@H](C#N)c2cccc(Oc3ccccc3)c2)[C@@H]1/C=C\C(=O)OC(C(F)(F)F)C(F)(F)F please.
Response: False

Query: CCOC(=O)C(SP(=S)(OC)OC)c1ccccc1 (configuration not stated) ?
Response: False

Query: Moving on to the next compound: CCOC(=O)CC(SP(=S)(OC)OC)C(=O)OCC (configuration not stated)
Response: False

Query: Now the same for COC(=O)NC(=S)Nc1ccccc1NC(=S)NC(=O)OC
Response: False

Query: Continue with COC(=O)c1cc(Oc2ccc(Cl)cc2Cl)ccc1[N+](=O)[O-]
Response: False

Others:
Query: What outcome does the record of this test show for O=CNC(N1CCN(C(NC=O)C(Cl)(Cl)Cl)CC1)C(Cl)(Cl)Cl (configuration not stated) ?
Response: False

Query: Lookup Nc1c([N+](=O)[O-])ccc(Oc2ccccc2)c1Cl
Response: False

Query: Follow-up item: COC(=O)NS(=O)(=O)c1ccc(N)cc1
Response: False

---

- Tested on: Parabacteroides merdae
- TEST NAME: growth AUC relative to DMSO control (median of replicates) (fraction); higher = more growth (less inhibition), active = hit call of the paper
- CONDITION LABEL: 20 µM; 24 h
Each record here notes measured growth AUC.

Solved entries (count: 5):
Query: API: value(readout= growth AUC, system= Parabacteroides merdae, query= CNC(=O)O/N=C/C(C)(C)S(C)=O (centres undefined) )
Response: 1 (inactive)

Query: Okay, and CNC(=O)Oc1cccc2c1OC(C)(C)O2 ?
Response: 1.02 (inactive)

Query: Item: CC(C)C(C(=O)OC(C#N)c1cccc(Oc2ccccc2)c1)c1ccc(OC(F)F)cc1 (centres undefined)
Response: 0.971 (inactive)

Query: Likewise for COc1ccc(/C(=C/C(=O)N2CCOCC2)c2ccc(Cl)cc2)cc1OC ?
Response: 0.993 (inactive)

Query: How about COP1(=S)OCc2ccccc2O1 (centres undefined) ?
Response: 0.999 (inactive)

Next:
Query: Find growth AUC (Parabacteroides merdae) for the entry OC(Cn1cncn1)(c1ccc(F)cc1)c1ccccc1F (centres undefined)
Response: 0.995 (inactive)

Query: Entry COc1cc(OC)nc(NC(=O)NS(=O)(=O)c2ncccc2C(=O)N(C)C)n1 please
Response: 0.988 (inactive)

Query: Field entry: CC(C)C(C(=O)OC(C#N)c1cccc(Oc2ccccc2)c1)c1ccc(Cl)cc1 (centres undefined)
Response: 0.974 (inactive)

Query: Now consider CC(CCl)OP(=O)(OC(C)CCl)OC(C)CCl (mixture of isomers) and answer again.
Response: 0.976 (inactive)

Query: Moving on to the next compound: Cc1c(COC(=O)[C@@H]2[C@H](/C=C(\Cl)C(F)(F)F)C2(C)C)cccc1-c1ccccc1
Response: 0.965 (inactive)

Query: Okay, and COP(=O)(OC)O/C(C)=C/C(=O)N(C)C ?
Response: 0.994 (inactive)

Query: Can you check COc1ccc(-c2ccccc2)cc1NNC(=O)OC(C)C next?
Response: 0.937 (inactive)

Query: And the next one, CON(C)C(=O)Nc1ccc(Cl)c(Cl)c1 ?
Response: 1 (inactive)

Query: Query COC(=O)c1sccc1S(=O)(=O)NC(=O)Nc1nc(C)nc(OC)n1 next
Response: 0.973 (inactive)

Query: Another: CCOC(=O)OC1=C(c2cc(C)ccc2C)C(=O)NC12CCC(OC)CC2 (centres undefined)
Response: 1.03 (inactive)

Query: Another: CCOP(=O)(NC(C)C)Oc1ccc(SC)c(C)c1 (centres undefined)
Response: 0.966 (inactive)

Query: And what about the compound CCOP(=S)(OCC)Oc1cnccn1 ?
Response: 1.01 (inactive)

Query: Consider next the compound CC1=NNC(=O)N(/N=C/c2cccnc2)C1 in the same way.
Response: 0.996 (inactive)

Query: Follow-up entry: C[C@@H](Oc1ccc(Oc2cnc3cc(Cl)ccc3n2)cc1)C(=O)O
Response: 1.03 (inactive)
